Target: CD45 (Homo sapiens, UniProt P08575)
Construct: incubating the cytosolic portion of CD45 with the compounds and p-nitrophenyl phosphate (pNPP); purchased BIOMOL (Plymouth Meeting, Pa.)
Sequence (P08575 599-1306 limits assumed): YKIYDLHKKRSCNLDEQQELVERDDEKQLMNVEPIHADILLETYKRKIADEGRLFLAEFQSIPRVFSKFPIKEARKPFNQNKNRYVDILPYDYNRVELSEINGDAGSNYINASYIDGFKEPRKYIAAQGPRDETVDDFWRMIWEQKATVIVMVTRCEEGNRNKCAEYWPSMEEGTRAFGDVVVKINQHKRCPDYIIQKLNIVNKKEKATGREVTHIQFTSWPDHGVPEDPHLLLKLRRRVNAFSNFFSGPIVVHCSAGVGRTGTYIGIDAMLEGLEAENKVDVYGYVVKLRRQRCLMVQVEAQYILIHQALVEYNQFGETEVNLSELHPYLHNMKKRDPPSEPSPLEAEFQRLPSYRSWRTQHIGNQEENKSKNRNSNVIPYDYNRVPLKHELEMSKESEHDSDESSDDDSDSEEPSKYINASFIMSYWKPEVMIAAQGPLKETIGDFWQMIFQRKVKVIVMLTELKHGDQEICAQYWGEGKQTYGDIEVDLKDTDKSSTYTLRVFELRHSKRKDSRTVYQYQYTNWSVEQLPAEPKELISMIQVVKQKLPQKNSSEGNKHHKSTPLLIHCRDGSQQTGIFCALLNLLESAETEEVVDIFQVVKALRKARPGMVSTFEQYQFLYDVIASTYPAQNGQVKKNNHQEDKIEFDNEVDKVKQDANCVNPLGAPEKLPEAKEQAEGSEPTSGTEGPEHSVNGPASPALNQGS
Assay: Phosphatase assay using lck 10-mer as substrate
Format: biochemical
Settings: CD45 phosphatase, lck carboxy-terminal peptide TEGQpYQPQP substrate, pH 7.2; read-out: Ick IC50
Where a SMILES comes first, the peptide text is derived from it. The star is where a group is joined. Phenanthrenequinone2carbonyl = O=C1C(=O)c2cc(C(=O)*)ccc2-c2ccccc21
For each entry below, report its IC50 value.

Entry COC(=O)CCCCCCC(=O)Nc1ccc2c(c1)C(=O)C(=O)c1cccc([N+](=O)[O-])c1-2 — recorded IC50 = > 30 µM

In plain terms, O=C1C(=O)c2cc(-c3ccc4c(c3)OCO4)ccc2-c2ccccc21 has a documented IC50 of > 30 µM

For reference, reported IC50 for N=C(N)NCCC[C@H](NC(=O)c1ccc2c(c1)C(=O)C(=O)c1ccccc1-2)C(=O)N[C@@H](CCC(=O)O)C(=O)N1CCC[C@H]1C(=O)N[C@@H](CCCNC(=N)N)C(=O)NCC(=O)O [Example 54] (Phenanthrenequinone2carbonyl-REPRG-OH) stands at 3.9 µM

###

Molecular target: CD45 (Homo sapiens, UniProt P08575)
Construct: incubating the cytosolic portion of CD45 with the compounds and p-nitrophenyl phosphate (pNPP); purchased BIOMOL (Plymouth Meeting, Pa.)
Test: Phosphatase assay using lck 10-mer as substrate
Format: biochemical
Where a SMILES comes first, the peptide text is derived from it. The star is where a group is joined. Phenanthrenequinone2carbonyl = O=C1C(=O)c2cc(C(=O)*)ccc2-c2ccccc21; 3Phenanthroyl(9,10-dioxo) = O=C1C(=O)c2ccc(C(=O)*)cc2-c2ccccc21
property_measured: IC50 (µM)
Number only, in µM; omit the unit.

Quick note, IC50 for N=C(N)NCCC[C@H](NC(=O)c1ccc2c(c1)C(=O)C(=O)c1ccccc1-2)C(=O)NCC(=O)N1CCC[C@H]1C(=O)N[C@@H](CCC(=O)O)C(=O)NCC(=O)O [Example 42] (Phenanthrenequinone2carbonyl-RGPEG-OH) landed at 3.5

// O=C(O)CC[C@H](NC(=O)c1ccc2c(c1)C(=O)C(=O)c1ccccc1-2)C(=O)NCC(=O)N1CCC[C@H]1C(=O)N[C@@H](CCC(=O)O)C(=O)NCC(=O)O [Example 41] (Phenanthrenequinone2carbonyl-EGPEG-OH) : IC50 value = 3.5

Entry NC(=O)CC[C@H](NC(=O)[C@@H]1CCCN1C(=O)[C@H](CCC(=O)O)NC(=O)CNC(=O)c1ccc2c(c1)-c1ccccc1C(=O)C2=O)C(=O)N1CCC[C@H]1C(=O)O [Example 27] ({3Phenanthroyl(9,10-dioxo)}-GEPQP-OH) , IC50 reported as 3.1

Entry O=C(O)CC[C@H](NC(=O)c1ccc2c(c1)C(=O)C(=O)c1ccccc1-2)C(=O)N[C@@H](CCC(=O)O)C(=O)N1CCC[C@H]1C(=O)N[C@@H](CCC(=O)O)C(=O)NCC(=O)O [Example 44] (Phenanthrenequinone2carbonyl-EEPEG-OH) — recorded IC50 = 3.8

The compound identified as N=C(N)NCCC[C@H](NC(=O)[C@@H]1CCCN1C(=O)[C@H](CCCNC(=N)N)NC(=O)[C@H](CCC(=O)O)NC(=O)c1ccc2c(c1)C(=O)C(=O)c1ccccc1-2)C(=O)NCC(=O)O [Example 56] (Phenanthrenequinone2carbonyl-ERPRG-OH) registered its IC50 at 2.3

For NC(=O)CC[C@H](NC(=O)[C@@H]1CCCN1C(=O)[C@H](CCC(N)=O)NC(=O)CNC(=O)c1ccc2c(c1)-c1ccccc1C(=O)C2=O)C(=O)N1CCC[C@H]1C(=O)O [Example 25] ({3Phenanthroyl(9,10-dioxo)}-GQPQP-OH) the compound record lists IC50 as 2.5

Measured IC50 of NC(=O)CC[C@H](NC(=O)c1ccc2c(c1)-c1ccccc1C(=O)C2=O)C(=O)N[C@@H](CCC(=O)O)C(=O)N1CCC[C@H]1C(=O)N[C@@H](CCC(N)=O)C(=O)N1CCC[C@H]1C(=O)O [Example 28] ({3Phenanthroyl(9,10-dioxo)}-QEPQP-OH) : 2.2

Recorded values, source patent US20030207812A1.
